System: CP238
method summary: qHTS profiling for inhibitors of Plasmodium falciparum proliferation (AID 504749); further: nearly all actives have a fitted effect of over 60% in size; further: potency means the concentration at half of the fitted maximal effect
condition set: P. falciparum in erythrocytes, SYBR Green DNA, 72 h; series mostly up to 12.8 µM
Results filed as inconclusive are left out. Calls of active or inactive are those of the source. The call rests on the fitted dose curve; in most records, active means well fitted inhibition curve with a large enough effect; inconclusive means small, poorly fitted or top-dose-only effect; inactive means flat fitted curve, though single readings scatter.
reported metric: Potency

Observe how each entry below is paired with its result.
// lookup Potency | system=CP238 | key= CCCC(=O)O[C@]1(C(=O)CO)CCC2[C@@H]3CCC4=CC(=O)CC[C@]4(C)C3C(O)C[C@]21C (stereo partly specified) inactive

# returns recorded Potency (system: CP238) for O=C(OC[C@@H](O)CO)c1ccccc1Nc1ccnc2cc(Cl)ccc12 inactive

# returns recorded Potency (system: CP238) for CC1(C)OC2CC(=O)OC[C@@]23C1CC(=O)[C@]1(C)C3CC[C@@]2(C)C(c3ccoc3)OC(=O)C3O[C@@]321 (stereo partly specified) inactive

What Potency appears in the records for this molecule with CP238? CC(=O)[C@@H]1CC[C@@H]2[C@@H]3C[C@H](C)C4=CC(=O)CC[C@@]4(C)[C@H]3[C@H](O)C[C@]21C inactive

Request - read-out Potency | tested on CP238 | molecule C[C@@]12CC[C@H]3[C@@H](CCC4=CC(=O)CC[C@]43C)[C@H]1CC[C@H]2C(=O)CO inactive

Checklist item: Potency tested on CP238, entry CC[C@H]1NC(=O)c2cc(S(N)(=O)=O)c(Cl)cc2N1 , value? inactive

Notebook entry, CP238 assay: Potency of CCN(CC)[C@@H](C)CN1c2ccccc2Sc2ccccc21 = ? inactive

Notebook: pull reported Potency for CP238, entry NS(=O)(=O)c1cc2c(cc1Cl)N[C@@H](C(Cl)Cl)NS2(=O)=O inactive

Write down the reported Potency of CN1CCN([C@@H](c2ccccc2)c2ccc(Cl)cc2)CC1 , test system: CP238. inactive

Field: Potency (CP238). Entry: C[C@H](O)Cn1cnc2c1c(=O)n(C)c(=O)n2C inactive

Others:
Give Potency (CP238) of the following molecule: COc1ccc2cc1Oc1ccc(cc1)CC1c3c(cc4c(c3Oc3cc5c(cc3OC)CCN(C)C5C2)OCO4)CCN1C (stereo unspecified) 7080 nM (active)

Field: Potency (CP238). Entry: Nc1nc2ncc(CNc3ccc(C(=O)NC(CCC(=O)O)C(=O)O)cc3)nc2c(=O)[nH]1 (stereo unspecified) inactive
